Data provenance is patent US11712438B2.

Consider molecules characterized by their pIC50 with PTGER2 (EP2) (Homo sapiens, UniProt P43116).
Sequence (P43116 whole entry): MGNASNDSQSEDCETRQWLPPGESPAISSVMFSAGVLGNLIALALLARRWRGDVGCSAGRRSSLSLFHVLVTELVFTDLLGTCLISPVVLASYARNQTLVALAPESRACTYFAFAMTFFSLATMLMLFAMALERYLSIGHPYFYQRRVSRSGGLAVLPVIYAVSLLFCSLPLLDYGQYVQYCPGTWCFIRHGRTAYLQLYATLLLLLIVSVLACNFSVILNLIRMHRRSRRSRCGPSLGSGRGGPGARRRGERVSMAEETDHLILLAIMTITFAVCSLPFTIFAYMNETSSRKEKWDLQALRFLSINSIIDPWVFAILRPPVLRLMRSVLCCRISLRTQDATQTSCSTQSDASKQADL
pIC50: −log10 of the molar value.
measurement.name: pIC50

a. CCOc1cc(-c2cc(NCCc3cc(Br)ccc3OC)ncn2)sc1-c1noc(=O)[nH]1
b. COc1cc(C)c(C)cc1CCNc1cc(-c2ccc(C(=O)O)c(OC3CCC3)c2)ncn1
c. CCOc1cc(-c2cc(NCCc3c(F)cc(Br)cc3F)ncn2)[nH]c1C(=O)O
d. CCOc1cc(-c2cc(NCCc3c(F)cc(Br)cc3F)nc(C)n2)sc1-c1noc(=O)[nH]1
e. CCOc1cc(-c2cc(NCCc3c(F)cc(Br)cc3F)ncn2)ccc1-c1nnn[nH]1
Enquiry: Rank order required: pIC50, descending. List each label, following the requested order.
Return: d, c, a, e, b

A. CCOc1cc(C(F)(F)F)ccc1CCNc1cc(-c2ccc(CC(=O)O)c(OCC)c2)ncn1
B. O=C(O)Cc1sc(-c2cc(NCCc3c(F)cc(Br)cc3F)ncn2)cc1OC(F)F
C. CCOc1cc(-c2cc(NCCc3ccc(Br)c(OC)c3)ncn2)sc1-c1noc(=O)[nH]1
D. CCOc1cc(-c2cc(NCCc3ccc(Br)cc3)ncn2)ccc1-c1noc(=O)[nH]1
Enquiry: Provide the items ranked by increasing pIC50. List each label, following the requested order.
Return: D, A, C, B

A. CCCc1cc(-c2cc(NCCc3c(F)cc(Br)cc3F)ncn2)ccc1C(=O)NCC
B. CCOc1cc(-c2cc(NCCc3c(F)cc(Br)cc3F)ncn2)ccc1C(=O)NCCOC
Enquiry: Please tell me which of the two, A or B , has the higher reported pIC50 value. Choose, then provide that item's label.
Return: B
(B: 6.93, A: 6.69)

1. CCOc1c(CC(=O)O)ccc(-c2cc(NCCc3c(F)cc(Br)cc3F)ncn2)c1F
2. CCOc1cc(-c2cc(NCCc3ccc(Cl)cc3Cl)ncn2)sc1-c1noc(=O)[nH]1
3. CCOc1cc(-c2cc(NCCc3ccc(C)c(C)c3)ncn2)sc1C(=O)O
4. COC(=O)c1ccc(-c2cc(NCCc3c(F)cc(Br)cc3F)ncn2)cc1SC
5. CCOc1cc(-c2cc(NCCc3c(C)cc(C)cc3OC)ncn2)sc1C(=O)O
Enquiry: Parameters: sort_field (pIC50), sort_dir (desc). List each label, following the requested order.
Return: 2, 5, 3, 1, 4

###

Consider compounds characterized by their pIC50 with EP4 (Homo sapiens).
Sequence (P35408 whole entry): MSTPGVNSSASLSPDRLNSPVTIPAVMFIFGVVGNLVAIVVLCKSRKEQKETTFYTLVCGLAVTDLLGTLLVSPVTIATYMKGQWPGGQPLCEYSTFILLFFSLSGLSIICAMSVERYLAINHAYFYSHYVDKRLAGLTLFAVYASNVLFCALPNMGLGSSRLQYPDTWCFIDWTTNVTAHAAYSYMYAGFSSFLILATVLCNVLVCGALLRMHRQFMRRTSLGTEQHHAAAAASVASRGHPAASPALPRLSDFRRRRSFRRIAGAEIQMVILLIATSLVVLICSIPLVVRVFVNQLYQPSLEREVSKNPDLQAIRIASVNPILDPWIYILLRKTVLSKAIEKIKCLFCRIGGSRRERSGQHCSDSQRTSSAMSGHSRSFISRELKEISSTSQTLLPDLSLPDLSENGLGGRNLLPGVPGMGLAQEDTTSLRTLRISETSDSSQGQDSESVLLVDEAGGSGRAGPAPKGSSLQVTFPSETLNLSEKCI
pIC50: −log10 of the molar value.
measurement.name: pIC50

CCOc1cc(-c2cc(NCCc3cc(OC)ccc3OC)ncn2)sc1C(=O)O : 7.38
CCOc1cc(-c2cc(NCCc3ccccc3Br)ncn2)sc1C(=O)O : 6.26
NC(=O)c1sc(-c2cc(NCCc3c(F)cc(Br)cc3F)ncn2)cc1C(F)(F)F : 6.14
CCOc1cc(-c2cc(NCCc3cc(OC)cc(OC)c3)ncn2)sc1C(=O)O : 6.61

a. CNc1cc(-c2cc(NCCc3c(F)cc(Br)cc3F)ncn2)ccc1C(N)=O
b. CCOc1cc(-c2cc(NCCc3ccc(Br)cc3)ncn2)sc1-c1noc(N)n1
c. CCOc1cc(-c2cc(NCCc3ccc(C)c(C)c3)ncn2)sc1-c1noc(=O)[nH]1
Enquiry: Parameters: sort_field (pIC50), sort_dir (desc). List each label, following the requested order.
Return: c, a, b

a. CCOc1cc(-c2cc(NCCc3ccc(Br)cc3)ncn2)sc1CC(N)=O
b. CCOc1cc(-c2cc(NCCc3ccc(Br)cc3)ncn2)sc1-c1noc(NCCO)n1
Enquiry: Please tell me which of the two, a or b , has the higher reported pIC50 value. Choose, then provide that item's label.
Return: b
(b: 6.77, a: 5.92)

###

# subject.of.test: PTGER2 (EP2) (Homo sapiens, UniProt P43116)
# experimental.protocol: cell-based
pIC50: −log10 of the molar value.
measurement.name: pIC50

CCOc1cc(-c2cc(NCCc3cc(C)c(C(F)F)cc3OC)ncn2)ccc1C(=O)O : 6.79
CCOc1cc(-c2cc(NCCc3c(OC)cc(Br)cc3OC)ncn2)sc1-c1noc(=O)[nH]1 : 8.05
CCOc1cc(-c2cc(NCCc3cc(F)c(Br)cc3C)ncn2)sc1-c1noc(=O)[nH]1 : 7.51
CCOc1cc(-c2cc(NCCc3c(C)cc(C)cc3OC)ncn2)ccc1CC(=O)O : 6.22
CCOc1cc(-c2cc(NCCc3ccc(OC)cc3F)ncn2)sc1-c1noc(=O)[nH]1 : 7.32
CCOc1cc(C(F)(F)F)ccc1CCNc1cc(-c2ccc(C(=O)O)c(SC)c2)ncn1 : 7.59
COc1cc(C(F)(F)F)ccc1CCNc1cc(-c2ccc(C(=O)O)c(SC)c2)ncn1 : 6.50
CCCn1cc(-c2cc(NCCc3c(F)cc(Br)cc3F)ncn2)cc1C(=O)O : 6.50

1. CCOc1cc(-c2cc(NCCc3ccc(Cl)cc3Cl)ncn2)sc1C(=O)O
2. CCOc1cc(-c2cc(NCCc3ccc(Br)cc3F)ncn2)ccc1C(=O)O
3. CCOc1cc(-c2cc(NCCc3c(F)cc(Br)cc3F)ncn2)sc1-n1nn[nH]c1=O
4. CCCc1cc(-c2cc(NCCc3c(F)cc(Br)cc3F)ncn2)sc1CC(=O)O
Enquiry: Provide the items ranked by increasing pIC50. List each label, following the requested order.
Return: 2, 4, 3, 1

###

Consider compounds characterized by their pIC50 with EP2 (Homo sapiens).
pIC50: −log10 of the molar value.
measurement.name: pIC50

Worked cases, answers included:
CCOc1cc(-c2cc(NCCc3cc(OC)ccc3OC)ncn2)sc1C(=O)O : 7.40
Cc1cc(-c2cc(NCCc3c(F)cc(Br)cc3F)ncn2)sc1C(=O)O : 7.39
CCOc1cc(-c2cc(NCCc3ccc(Br)cc3)ncn2)sc1-c1noc(C2COC2)n1 : 6.15

a. CCOc1c(C(N)=O)sc(-c2cc(NCCc3c(F)cc(Br)cc3F)ncn2)c1Cl
b. CCOc1cc(-c2cc(NCCc3c(F)cc(Br)cc3F)nc(C)n2)sc1-c1noc(=O)[nH]1
c. CCOc1cc(-c2cc(NCCc3ccc(OC)cc3)ncn2)sc1C(=O)O
Enquiry: Provide the items ranked by increasing pIC50. List each label, following the requested order.
Return: a, c, b

###

# subject.of.test: PTRGER4 (EP4) (Homo sapiens)
pIC50: −log10 of the molar value.
measurement.name: pIC50

Worked cases, answers included:
CCOc1cc(-c2cc(NCCc3ccc(Br)cc3)ncn2)sc1-c1nnn[nH]1 [Example 131] : 8.52
CCOc1c(C(=O)O)ccc(-c2cc(NCCc3c(F)cc(Br)cc3F)ncn2)c1F [Example 274] : 6.19
CCOc1cc(-c2cc(NCCc3ccc(O)cc3)ncn2)sc1C(=O)O [Example 69] : 6.04

a. CCOc1cc(-c2cc(NCCc3c(F)cc(Br)cc3F)ncn2)sc1CCC(=O)O [Example 44]
b. CCOc1cc(-c2cc(NCCc3ccc(Br)cc3)ncn2)sc1C(N)=O [Example 128]
Enquiry: Among a and b , whose measured pIC50 is the smaller figure? Choose, then provide that item's label.
Return: a
(a: 7.21, b: 7.47)

###

# subject.of.test: PTRGER4 (EP4) (Homo sapiens, UniProt P35408)
measurement.name: IC50 (nM)

CCOc1cc(-c2cc(NCCc3ccccc3F)ncn2)sc1C(=O)O : 3030

A. CCOc1cc(-c2cc(NCCc3ccc(Br)cc3)ncn2)sc1Cc1noc(=O)[nH]1
B. COC(=O)c1ccc(-c2cc(NCCc3c(F)cc(Br)cc3F)ncn2)cc1SC
Enquiry: Among A and B , whose measured IC50 is the smaller figure? Choose, then provide that item's label.
Return: B
(B: 277 nM, A: 411 nM)

###

Consider compounds characterized by their IC50 with PTRGER4 (EP4) (Homo sapiens).
measurement.name: IC50 (nM)

Worked cases, answers included:
Oc1cc(-c2ccc(-c3cc(NCCc4c(F)cc(Br)cc4F)ncn3)cc2)on1 [Example 33] : 156
COc1cc(C)c(C)cc1CCNc1cc(-c2ccc(C(=O)O)c(OC3CCC3)c2)ncn1 [Example 188] : 117
CCOc1cc(-c2cc(NCCc3c(C)cc(C)cc3OC)ncn2)sc1C(=O)O [Example 203] : 92
COc1cc(C)c(C)cc1CCNc1cc(-c2ccc(CC(=O)O)c(SC)c2)ncn1 [Example 191] : 145

1. CCOc1cc(-c2cc(NCCc3c(F)cc(Br)cc3F)ncn2)ccc1-c1noc(=O)[nH]1 [Example 234]
2. CCOc1cc(-c2cc(NCCc3ccc(C)cc3C)ncn2)sc1C(=O)O [Example 57]
3. O=c1[nH]c(-c2ccc(-c3cc(NCCc4c(F)cc(Br)cc4F)ncn3)cn2)no1 [Example 289]
4. CCCc1cc(-c2cc(NCCc3cc(Cl)c(C(F)(F)F)cc3OC)ncn2)ccc1C(=O)O [Example 197]
5. CCOc1cc(-c2cc(NCCc3ccc(Br)cc3)ncn2)sc1-c1noc(=O)[nH]1 [Example 130]
Enquiry: Parameters: sort_field (IC50), sort_dir (desc). List each label, following the requested order.
Return: 2, 3, 4, 1, 5

a. CCOc1cc(-c2cc(NCCc3cc(OC)cc(OC)c3)ncn2)sc1C(=O)O [Example 67]
b. CCOc1cc(-c2cc(NCCc3ccc(OC(F)F)cc3OC)ncn2)ccc1C(=O)O [Example 220]
c. CCOc1cc(-c2cc(NCCc3cc(OC)ccc3OC)ncn2)sc1C(=O)O [Example 72]
d. CC(C)COc1cc(-c2cc(NCCc3c(F)cc(Br)cc3F)ncn2)ccc1C(=O)O [Example 237]
Enquiry: Parameters: sort_field (IC50), sort_dir (desc). List each label, following the requested order.
Return: b, d, a, c
